# EXPERIMENTAL_SYSTEM: BRM (Homo sapiens, UniProt P51531)
# Sequence (P51531 whole entry): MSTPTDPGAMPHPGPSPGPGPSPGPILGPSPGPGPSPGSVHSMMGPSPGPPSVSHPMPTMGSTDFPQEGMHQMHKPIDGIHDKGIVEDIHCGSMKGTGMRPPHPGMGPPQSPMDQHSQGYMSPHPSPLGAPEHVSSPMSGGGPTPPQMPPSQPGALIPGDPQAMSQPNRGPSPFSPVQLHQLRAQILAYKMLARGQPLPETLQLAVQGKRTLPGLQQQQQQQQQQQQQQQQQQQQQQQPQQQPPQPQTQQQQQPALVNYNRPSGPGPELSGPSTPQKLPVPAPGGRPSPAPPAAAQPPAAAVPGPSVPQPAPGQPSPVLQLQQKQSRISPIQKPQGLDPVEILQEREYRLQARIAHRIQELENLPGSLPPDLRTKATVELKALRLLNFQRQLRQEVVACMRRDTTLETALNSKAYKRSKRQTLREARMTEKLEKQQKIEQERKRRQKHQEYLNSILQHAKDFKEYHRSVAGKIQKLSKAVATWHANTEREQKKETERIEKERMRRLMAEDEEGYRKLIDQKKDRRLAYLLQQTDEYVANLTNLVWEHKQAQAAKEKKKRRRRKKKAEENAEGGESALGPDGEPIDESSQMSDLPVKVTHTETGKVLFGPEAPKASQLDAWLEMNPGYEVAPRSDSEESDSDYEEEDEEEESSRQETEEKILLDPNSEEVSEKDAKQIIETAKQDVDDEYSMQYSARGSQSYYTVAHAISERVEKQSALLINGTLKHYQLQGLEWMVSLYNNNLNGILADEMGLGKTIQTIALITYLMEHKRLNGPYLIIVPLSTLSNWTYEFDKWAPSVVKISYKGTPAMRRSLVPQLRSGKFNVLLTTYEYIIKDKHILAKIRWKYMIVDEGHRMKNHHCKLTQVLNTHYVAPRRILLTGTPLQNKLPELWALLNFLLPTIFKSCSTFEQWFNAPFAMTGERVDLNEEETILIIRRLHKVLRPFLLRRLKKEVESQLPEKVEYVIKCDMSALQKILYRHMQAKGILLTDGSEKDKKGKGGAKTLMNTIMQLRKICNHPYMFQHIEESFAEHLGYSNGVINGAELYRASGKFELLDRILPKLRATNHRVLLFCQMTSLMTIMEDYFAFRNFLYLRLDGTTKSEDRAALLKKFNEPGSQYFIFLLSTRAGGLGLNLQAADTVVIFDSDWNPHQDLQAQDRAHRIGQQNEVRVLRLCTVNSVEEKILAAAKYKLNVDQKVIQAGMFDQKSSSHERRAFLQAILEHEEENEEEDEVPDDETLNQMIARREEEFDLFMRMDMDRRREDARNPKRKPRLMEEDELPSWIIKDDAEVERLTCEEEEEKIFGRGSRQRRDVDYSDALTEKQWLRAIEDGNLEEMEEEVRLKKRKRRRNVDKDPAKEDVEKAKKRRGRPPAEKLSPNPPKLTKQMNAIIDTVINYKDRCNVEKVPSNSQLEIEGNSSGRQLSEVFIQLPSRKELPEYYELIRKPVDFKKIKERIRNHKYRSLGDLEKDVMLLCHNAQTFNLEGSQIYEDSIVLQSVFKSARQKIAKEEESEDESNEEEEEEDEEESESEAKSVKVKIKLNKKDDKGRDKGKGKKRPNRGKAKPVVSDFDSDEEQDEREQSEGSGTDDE
# EXPERIMENT_DESCRIPTION: ATPase catalytic activity assay (ADP-Glo), BRM
# RECORDED_CONDITIONS: 30 nM BRM, 400 μM ATP
Form field: BRM Max % Inhibition (one value per entry).
Field: numeric (%). Do not append units.

COMPOUND	EXPERIMENTAL_SYSTEM	RESULT_UNITS	BRM Max % Inhibition
COC1(c2cccc(-c3ccc4cnc(CNC(=O)c5ccc6c(c5)[C@](C)(C#N)COC6)cc4n3)c2)COC1	BRM (Homo sapiens, UniProt P51531)	%	90
COC(=O)N1CCC2CC2(c2ccc3cnc(CNC(=O)c4ccc5c(c4)[C@](C)(C#N)COC5)cc3n2)C1 (some centres unmarked)	BRM (Homo sapiens, UniProt P51531)	%	90

Reported BRM Max % Inhibition for C[C@@]1(C#N)COCc2ccc(C(=O)NCc3cc4cc(-c5cncc(N6CCC6)n5)ccc4nn3)cc21 : what is it? 97

Reported BRM Max % Inhibition for CN1CC(c2cccc(-c3ccc4cnc(CNC(=O)c5ccc6c(c5)[C@](C)(C#N)COC6)cc4n3)c2)C1 : what is it? 84

Reported BRM Max % Inhibition for C[C@@]1(C#N)COCc2ccc(C(=O)NCc3nccc(C#Cc4ccccc4)c3F)cc21 : what is it? 94

Reported BRM Max % Inhibition for C[C@@]1(C#N)COCc2ccc(C(=O)NCc3cc(N4CCc5ccccc5C4)ccn3)cc21 : what is it? 98

Reported BRM Max % Inhibition for CN(C)c1cccc(-c2ccc3cnc(CNC(=O)c4cnc5c(c4)[C@](F)(C(F)F)COC5)cc3n2)n1 : what is it? 101

Reported BRM Max % Inhibition for COC1CN(C(=O)c2cccc(-c3ccc4cnc(CNC(=O)c5ccc6c(c5)[C@](C)(C#N)COC6)cc4n3)c2)C1 : what is it? 96

Reported BRM Max % Inhibition for CO[C@H]1CCN(c2cncc(-c3ccc4cnc(CNC(=O)c5ccc6c(c5)[C@](C)(F)COC6)cc4c3)n2)C1 : what is it? 104
